B1: H2-Kb / Ed21 (parent complex)
chain 1: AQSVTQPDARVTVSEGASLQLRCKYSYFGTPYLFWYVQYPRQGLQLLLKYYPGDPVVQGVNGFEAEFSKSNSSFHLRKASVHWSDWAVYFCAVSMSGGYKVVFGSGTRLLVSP
chain 2: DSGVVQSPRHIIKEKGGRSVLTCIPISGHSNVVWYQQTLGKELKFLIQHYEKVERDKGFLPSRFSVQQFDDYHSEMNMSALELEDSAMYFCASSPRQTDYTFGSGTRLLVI
chain 3: not shown
chain 4: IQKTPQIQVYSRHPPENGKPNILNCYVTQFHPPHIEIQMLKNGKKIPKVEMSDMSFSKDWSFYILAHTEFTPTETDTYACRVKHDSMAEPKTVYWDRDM
chain 5: SIINFEKL

Variants of: B1
TEST_SUMMARY: % of reporter cells activated (NFAT-GFP), raw; note: test concentration or dose not given here
METRIC: ratio to parent

chain 5 S1V ... 0.9
chain 5 F5I ... 0.891
chain 5 K7W ... 0.717
chain 5 L8K ... 0.901
